B1: GFOD1 (parent)
chain: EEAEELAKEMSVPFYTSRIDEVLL

Variants of: B1
Assay: protein stability index of a GFP-peptide fusion (GPS, HEK-293T) (PSI 1-6); higher = more stable;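 further: lentivirally expressed fusions sorted by FACS into six bins by GFP to DsRed ratio, PSI derived from sequencing read proportions per bin multiplied by bin number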
Conditions: c terminus: a fixed tail appended
Please assign a class to every record based on measured protein stability index, with ranges low value = under 3, medium value = from 3 up to 4, high value = 4 and over

Previously resolved entries follow.
{"columns": ["mutation", "label_class"],
 "data": [
  ["E5S", "medium value"],
  ["L6I", "medium value"],
  ["Y15N", "high value"],
  ["R18E", "high value"],
  ["T16P", "medium value"]
]}

Band for `R18A` ?
high value

Class label required: `V22F`
medium value

Band of `E1I` ?
low value

For the record `R18S` , report the class its protein stability index corresponds to.
high value

Textbook exercise: identify the category of the variant given here, `L24M` , according to its measured value.
medium value

Which category fits this record: `E4Y`
low value

// bin(item) where item = `A3C`
low value

Class label required: `V22W`
medium value

Note: place this variant into its band. Item: `E21W`
low value

Hello team, could you let me know which band the following variant falls into: `L23S`
high value

This collection of values is drawn from the supplement of paper PMC10567573.
